Measured pIC50, listed per entry.
- Tested on: Colo205
- PROTOCOL: Proliferation inhibition, Wnt mutant cell line Colo205
- Assay type: cell-based
- CONDITION: Homo sapiens, COLO 205; Colo205, Wnt pathway-dependent, 96 hours; read-out: Antiproliferative IC50 Colo205
pIC50: −log10 of the molar value.

COMPOUND	pIC50
CCN1c2nc(NCc3ccc(Oc4ccc(C(F)(F)F)nc4)nc3)nc3c2N(CCC3)C(=O)[C@@H]1C [116 (W249)]	7.44
C[C@H]1C(=O)N2CCCc3nc(NCc4ccc(Cc5ccc(C(F)(F)F)cc5)nc4)nc(c32)N1C [138 (W271)]	7.32
[2H]C([2H])([2H])N1c2nc(NCc3ccc(Oc4cnc(C(F)(F)F)nc4)nc3)nc3c2N(CCC3)C(=O)C1CC(F)(F)F (centres unmarked) [192 (W324)]	8.49
[2H]C([2H])([2H])N1c2nc(NCc3ccc(Oc4ccc(C(F)(F)F)nc4)nc3)nc3c2N(CCC3)C(=O)[C@]1(C)CO [220 (W398)]	7.32
C[C@H]1C(=O)N2CCCc3nc(NCc4ccc(Oc5ccc(C(F)(F)F)nc5)cc4)nc(c32)N1C [101 (W213)]	7.07
CN1c2nc(NCc3ccc(Oc4ccc(C(F)(F)F)nc4)nc3)nc3c2N(CCC3)C(=O)C1(C)C [176 (W296)]	8.25
[2H]C([2H])([2H])N1c2nc(NCc3ccc(Oc4cnc(C(F)(F)F)nc4)nc3)nc3c2N(CCC3)C(=O)[C@@H]1CC(F)F [164 (W326)]	8.30
CN1c2nc(NCc3ccc(Oc4cc(C(F)(F)F)nn4C4CC4)nc3)nc3c2N(CCC3)C(=O)[C@]1(C)CO [203 (W372)]	8.03
C[C@H]1C(=O)N2CCCc3nc(NCc4ccc(OC5CCC(F)(F)CC5)nc4)nc(c32)N1C [98 (W188)]	7.51
C[C@H]1Cn2ccc3nc(NCc4cnn(Cc5ccc(F)cc5)c4)nc(c32)N1CCO [62 (W13)]	7.88
[2H]C([2H])([2H])OC[C@@]1(C)C(=O)N2CCCc3nc(NCc4ccc(Oc5cnc(C(F)(F)F)nc5)nc4)nc(c32)N1C([2H])([2H])[2H] [181 (W396)]	7.92
CN1CC(F)(F)Cn2ccc3nc(NCc4cnn(Cc5ccc(C(F)(F)F)nc5)c4)nc1c32 [Example 26]	7.46
[2H]C([2H])([2H])N1c2nc(NCc3ccc(Oc4ccc(C(F)(F)F)nc4)nc3)nc3c2N(CCC3)C(=O)C1CC(F)(F)F (centres unmarked) [195 (W323)]	8.68
[2H]C([2H])([2H])n1nc(C(F)(F)F)cc1Oc1ccc(CNc2nc3c4c(n2)N(C)[C@@H](CO)C(=O)N4CCC3)cn1 [241 (W431)]	7.94
CO[C@@H](C)[C@H]1C(=O)N2CCCc3nc(NCc4ccc(Oc5ccc(C(F)(F)F)nc5)nc4)nc(c32)N1C [113 (W247)]	7.32
C[C@H]1C(=O)N2CCCc3nc(NCc4ccc(Oc5ccnc(C(F)(F)F)c5)nc4)nc(c32)N1C [100 (W239)]	7.23
COC[C@H]1C(=O)N2CCCc3nc(NCc4ccc(Oc5cnc(C(F)(F)F)nc5)nc4)nc(c32)N1C [154 (W258)]	7.43
COC[C@H]1Cn2ccc3nc(NCc4ccc(OC5CCC(F)(F)CC5)nc4)nc(c32)N1C [85 (W132)]	8.08
C[C@H]1Cn2ccc3nc(NCc4ccc(Oc5ccc(C(F)(F)F)nc5)nc4)nc(c32)N1C [77 (W86)]	8.33
CN1c2nc(NCc3cnn(Cc4ccc(C(F)(F)F)nc4)c3)nc3ccn(c23)C[C@@H]1C1CC1 [75 (W77)]	8.04
C[C@H]1Cn2ccc3nc(NCc4ccc(OCCOCC(F)(F)F)nc4)nc(c32)N1C [79 (W95)]	7.36
COc1nc(C(F)(F)F)ccc1Oc1ccc(CNc2nc3c4c(n2)N(C)[C@@H](C)C(=O)N4CCC3)cn1 [231 (W417)]	8.80
CN1c2nc(NCc3ccc(Oc4cnc(C(F)(F)F)nc4)nc3)nc3c2N(CCC3)C(=O)[C@@H]1C1CC1 [167 (W289)]	8.22
CN1c2nc(NCc3ccc(Oc4ccc(C(F)(F)F)nc4)nc3)nc3c2N(CCC3)C(=O)C12CCOC2 (centres unmarked) [207 (W357)]	7.08
O=C1[C@@H]2COCCN2c2nc(NCc3ccc(Oc4ccc(C(F)(F)F)nc4)nc3)nc3c2N1CCC3 [124 (W278)]	6.82
[2H]C1([2H])[C@H](COC)N(C)c2nc(NCc3cnn(Cc4ccc(C(F)(F)F)nc4)c3)nc3ccn1c23 [Example 24]	8.05
CCn1nc(C(F)(F)F)cc1Oc1ccc(CNc2nc3c4c(n2)N(C)[C@@](C)(CO)C(=O)N4CCC3)cn1 [204 (W374)]	8.02
C[C@H]1Cn2ccc3nc(NCc4ccc(Oc5ccc(C(F)(F)F)nc5)cc4)nc(c32)N1C [78 (W87)]	7.56
CN1c2nc(NCc3ccc(Oc4cnc(C(F)(F)F)nc4)nc3)nc3c2N(CCC3)C(=O)C12CCOCC2 [217 (W359)]	7.24

---

- System: Hela
- PROTOCOL: Proliferation inhibition, non-Wnt mutant control cell line Hela
- Assay type: cell-based
- CONDITION: Homo sapiens, Wnt-independent control cell line, 96 hours, read-out: Antiproliferative IC50 Hela
pIC50: −log10 of the molar value.

STRUCTURE_AS_SMILES	pIC50
C[C@@H]1CN(C)c2nc(NCc3cnn(Cc4ccc(C(F)(F)F)nc4)c3)nc3ccn1c23	< 5.00
COC[C@H]1Cn2ccc3nc(NCc4ccc(C(F)(F)F)nc4)nc(c32)N1C	< 5.00
Cc1cn2c3c(nc(NCc4cnn(Cc5ccc(F)cc5)c4)nc13)N(C)[C@@H](C)C2	5.46
CN1CC(F)(F)Cn2ccc3nc(NCc4cnn(Cc5ccc(C(F)(F)F)nc5)c4)nc1c32	< 5.00
C[C@H]1C(=O)N2CCCc3nc(NCc4ccc(Oc5cncc(C(F)(F)F)c5)nc4)nc(c32)N1C	< 5.00
CN1c2nc(NCc3cnn(CC(F)(F)F)c3)nc3ccn(c23)CC1(C)C	5.32
C[C@H]1CN(C)c2nc(NCc3cnn(Cc4ccc(C(F)(F)F)nc4)c3)nc3ccn1c23	< 5.00
[2H]C1([2H])[C@H](COC)N(C)c2nc(NCc3cnn(Cc4ccc(C(F)(F)F)nc4)c3)nc3ccn1c23	< 5.00
C[C@H]1CN(C2CC2)c2nc(NCc3cnn(Cc4ccc(C(F)(F)F)nc4)c3)nc3ccn1c23	< 5.00
C[C@H]1C(=O)N2CCCc3nc(NCc4ccc(Oc5cnc(C(F)(F)F)nc5)nc4)nc(c32)N1C	< 5.00
C[C@H]1C(=O)N2CCCc3nc(NCc4ccc(Oc5ccc(C(F)(F)F)nc5)cc4)nc(c32)N1C	5.16
COC[C@H]1Cn2ccc3nc(NCc4cnn(Cc5ccc(C(F)(F)F)nc5)c4)nc(c32)N1C	< 5.00
C[C@H]1Cn2ccc3nc(NCc4ccc(Oc5ccccc5)cc4)nc(c32)N1C	5.96
C[C@H]1C(=O)N2CCCc3nc(NCc4ccc(Oc5ccnc(C(F)(F)F)c5)nc4)nc(c32)N1C	< 5.00
C[C@H]1Cn2ccc3nc(NCc4cnn(CC(F)(F)F)c4)nc(c32)N1C	< 5.00
C[C@H]1Cn2ccc3nc(NCc4cnn(Cc5ccc(C(F)(F)F)nc5)c4)nc(c32)N1CC(F)(F)F	5.85

---

- Test system: Hela
- PROTOCOL: Proliferation inhibition, non-Wnt mutant control cell line Hela
- Format: cell-based
- CONDITION: Homo sapiens, Wnt-independent control cell line, 96 hours, read-out: Antiproliferative IC50 Hela
pIC50: −log10 of the molar value.
Reported pIC50 values for a set of compounds

STRUCTURE_AS_SMILES	REPORTED_RELATION	pIC50
C[C@H]1Cn2ccc3nc(NCc4ccc(OCc5ccccc5)cc4)nc(c32)N1C	=	5.26
CN1c2nc(NCc3cnn(Cc4ccc(C(F)(F)F)nc4)c3)nc3ccn(c23)C[C@@H]1CO	<	5.00
C[C@H]1Cn2ccc3nc(NCc4ccc(Oc5ccc(C(F)(F)F)nc5)cc4)nc(c32)N1C	=	6.04
C[C@H]1Cn2ccc3nc(NCc4ccc(OCC(F)(F)F)nc4)nc(c32)N1C	=	5.84
COC[C@H]1CN(C)c2nc(NCc3cnn(Cc4ccc(C(F)(F)F)nc4)c3)nc3cc(C)n1c23	<	5.00
C[C@H]1CCn2ccc3nc(NCc4cnn(Cc5ccc(F)cc5)c4)nc(c32)N1C	=	5.59
[2H]c1cc2nc(NCc3cnn(Cc4ccc(C(F)(F)F)nc4)c3)nc3c2n1C[C@H](C)N3C	<	5.00
C[C@H]1Cn2ccc3nc(NCc4cnn(CCCC(F)(F)F)c4)nc(c32)N1C	<	5.00
